Values from ChEMBL document CHEMBL4311942

Form field: MIC (one value per entry).
# Tested on: Pseudomonas aeruginosa
# measurementProtocol: Antibacterial activity against Pseudomonas aeruginosa 25349 clinical isolate incubated for 18 to 24 hrs by broth microdilution method
# Format: functional
Where a SMILES comes first, the peptide text is derived from it.
property: MIC

# compound, property, endpointValue
measured = [
    ("CC[C@H](C)[C@H](NC(=O)[C@H](CCCCN)NC(=O)[C@H](Cc1c[nH]c2ccccc12)NC(=O)[C@H](CCCCN)NC(=O)[C@@H](NC(=O)[C@H](CCCCN)NC(=O)[C@H](Cc1c[nH]c2ccccc12)NC(=O)[C@H](CCCCN)NC(=O)[C@@H](NC(=O)[C@H](CCCCN)NC(=O)[C@@H](N)Cc1c[nH]c2ccccc12)[C@@H](C)CC)[C@@H](C)CC)C(=O)N[C@@H](CCCCN)C(N)=O (H-WKIKWKIKWKIK-NH2)", "MIC", "4 µM"),
    ("C[C@@H](O)[C@H](NC(=O)[C@H](CCCCN)NC(=O)[C@H](Cc1c[nH]c2ccccc12)NC(=O)[C@H](CCCNC(=N)N)NC(=O)[C@H](Cc1ccccc1)NC(=O)[C@H](CCCNC(=N)N)NC(=O)[C@@H](N)Cc1c[nH]c2ccccc12)C(=O)N[C@@H](CCCNC(=N)N)C(=O)N[C@@H](Cc1c[nH]c2ccccc12)C(=O)N[C@@H](CCCNC(=N)N)C(=O)N[C@@H](Cc1ccccc1)C(=O)N[C@@H](CCCCN)C(N)=O (H-WRFRWKTRWRFK-NH2)", "MIC", "8 µM"),
    ("CC(C)[C@H](NC(=O)[C@H](CCCNC(=N)N)NC(=O)[C@H](Cc1c[nH]c2ccccc12)NC(=O)[C@H](CCCNC(=N)N)NC(=O)[C@@H](NC(=O)[C@H](CCCNC(=N)N)NC(=O)[C@H](Cc1c[nH]c2ccccc12)NC(=O)[C@H](CCCNC(=N)N)NC(=O)[C@@H](NC(=O)[C@H](CCCNC(=N)N)NC(=O)[C@@H](N)Cc1c[nH]c2ccccc12)C(C)C)C(C)C)C(=O)N[C@@H](CCCNC(=N)N)C(N)=O (H-WRVRWRVRWRVR-NH2)", "MIC", "4 µM"),
    ("CC(C)(O/N=C(\\C(=O)N[C@@H]1C(=O)N2C(C(=O)[O-])=C(C[n+]3ccccc3)CS[C@H]12)c1csc(N)n1)C(=O)O [CEFTAZIDIME]", "MIC", "32 µM"),
]

###

Form field: MIC (one value per entry).
# Test system: Staphylococcus aureus
# measurementProtocol: Antibacterial activity against Staphylococcus aureus ATCC 25923 incubated for 18 to 24 hrs by broth microdilution method
# Assay type: functional
Where a SMILES comes first, the peptide text is derived from it.
property: MIC

# compound, endpointValue
measured = [
    ("CC1COc2c(N3CCN(C)CC3)c(F)cc3c(=O)c(C(=O)O)cn1c23 (configuration not stated)", "1 µM"),
    ("CC(C)C[C@H](NC(=O)[C@H](Cc1c[nH]c2ccccc12)NC(=O)[C@H](CCCCN)NC(=O)[C@H](CCCNC(=N)N)NC(=O)[C@@H](NC(=O)[C@H](Cc1c[nH]c2ccccc12)NC(=O)[C@H](CCCCN)NC(=O)[C@H](CCCNC(=N)N)NC(=O)[C@H](CC(C)C)NC(=O)[C@H](Cc1c[nH]c2ccccc12)NC(=O)[C@@H](N)CCCNC(=N)N)[C@@H](C)O)C(=O)N[C@@H](CCCCN)C(N)=O (H-RWLRKWTRKWLK-NH2)", "16 µM"),
    ("CO[C@H]1/C=C/O[C@@]2(C)Oc3c(C)c(O)c4c(O)c(c(/C=N/N5CCN(C)CC5)c(O)c4c3C2=O)NC(=O)/C(C)=C\\C=C\\[C@H](C)[C@H](O)[C@@H](C)[C@@H](O)[C@@H](C)[C@H](OC(C)=O)[C@@H]1C", "0.25 µM"),
    ("CC(C)C[C@H](NC(=O)[C@H](CCCNC(=N)N)NC(=O)[C@H](CCCCN)NC(=O)[C@H](CCCNC(=N)N)NC(=O)[C@@H](NC(=O)[C@H](CCCCN)NC(=O)[C@H](CCCCN)NC(=O)[C@H](CCCNC(=N)N)NC(=O)[C@H](CC(C)C)NC(=O)[C@H](CCCNC(=N)N)NC(=O)[C@@H](N)CCCNC(=N)N)[C@@H](C)O)C(=O)N[C@@H](CCCCN)C(N)=O (H-RRLRKKTRKRLK-NH2)", "> 128 µM"),
    ("O=C(O)c1cn(C2CC2)c2cc(N3CCNCC3)c(F)cc2c1=O", "0.5 µM"),
    ("CC[C@H](C)[C@H](NC(=O)[C@H](CCCNC(=N)N)NC(=O)[C@H](Cc1c[nH]c2ccccc12)NC(=O)[C@H](CCCNC(=N)N)NC(=O)[C@@H](NC(=O)[C@H](CCCCN)NC(=O)[C@H](Cc1c[nH]c2ccccc12)NC(=O)[C@H](CCCNC(=N)N)NC(=O)[C@@H](NC(=O)[C@H](CCCNC(=N)N)NC(=O)[C@@H](N)Cc1c[nH]c2ccccc12)[C@@H](C)CC)[C@@H](C)O)C(=O)N[C@@H](CCCCN)C(N)=O (H-WRIRWKTRWRIK-NH2)", "2 µM"),
    ("CC(C)C[C@H](NC(=O)[C@H](CCCNC(=N)N)NC(=O)[C@H](Cc1c[nH]c2ccccc12)NC(=O)[C@H](CCCNC(=N)N)NC(=O)[C@@H](NC(=O)[C@H](CCCCN)NC(=O)[C@H](Cc1c[nH]c2ccccc12)NC(=O)[C@H](CCCNC(=N)N)NC(=O)[C@H](CC(C)C)NC(=O)[C@H](CCCNC(=N)N)NC(=O)[C@@H](N)Cc1c[nH]c2ccccc12)[C@@H](C)O)C(=O)N[C@@H](CCCCN)C(N)=O (H-WRLRWKTRWRLK-NH2)", "2 µM"),
    ("CC(C)[C@H](NC(=O)[C@H](CCCCN)NC(=O)[C@H](Cc1c[nH]c2ccccc12)NC(=O)[C@H](CCCCN)NC(=O)[C@@H](NC(=O)[C@H](CCCCN)NC(=O)[C@H](Cc1c[nH]c2ccccc12)NC(=O)[C@H](CCCCN)NC(=O)[C@@H](NC(=O)[C@H](CCCCN)NC(=O)[C@@H](N)Cc1c[nH]c2ccccc12)C(C)C)C(C)C)C(=O)N[C@@H](CCCCN)C(N)=O (H-WKVKWKVKWKVK-NH2)", "2 µM"),
    ("CN(C)c1ccc(O)c2c1C[C@H]1C[C@H]3[C@H](N(C)C)C(O)=C(C(N)=O)C(=O)[C@@]3(O)C(O)=C1C2=O", "0.25 µM"),
    ("CN[C@H](CC(C)C)C(=O)N[C@H]1C(=O)N[C@@H](CC(N)=O)C(=O)N[C@H]2C(=O)N[C@H]3C(=O)N[C@H](C(=O)N[C@H](C(=O)O)c4cc(O)cc(O)c4-c4cc3ccc4O)[C@H](O)c3ccc(c(Cl)c3)Oc3cc2cc(c3O[C@@H]2O[C@H](CO)[C@@H](O)[C@H](O)[C@H]2O[C@H]2C[C@](C)(N)[C@H](O)[C@H](C)O2)Oc2ccc(cc2Cl)[C@H]1O", "0.5 µM"),
    ("CC(C)[C@H](NC(=O)[C@H](CCCNC(=N)N)NC(=O)[C@H](Cc1c[nH]c2ccccc12)NC(=O)[C@H](CCCNC(=N)N)NC(=O)[C@@H](NC(=O)[C@H](CCCCN)NC(=O)[C@H](Cc1c[nH]c2ccccc12)NC(=O)[C@H](CCCNC(=N)N)NC(=O)[C@@H](NC(=O)[C@H](CCCNC(=N)N)NC(=O)[C@@H](N)Cc1c[nH]c2ccccc12)C(C)C)[C@@H](C)O)C(=O)N[C@@H](CCCCN)C(N)=O (H-WRVRWKTRWRVK-NH2)", "4 µM"),
    ("CC(C)[C@H](NC(=O)[C@H](CCCNC(=N)N)NC(=O)[C@H](Cc1c[nH]c2ccccc12)NC(=O)[C@H](CCCNC(=N)N)NC(=O)[C@@H](NC(=O)[C@H](CCCNC(=N)N)NC(=O)[C@H](Cc1c[nH]c2ccccc12)NC(=O)[C@H](CCCNC(=N)N)NC(=O)[C@@H](NC(=O)[C@H](CCCNC(=N)N)NC(=O)[C@@H](N)Cc1c[nH]c2ccccc12)C(C)C)C(C)C)C(=O)N[C@@H](CCCNC(=N)N)C(N)=O (H-WRVRWRVRWRVR-NH2)", "2 µM"),
]
